Where do the numbers come from? From patent US20070196374A1.

Target entity: T1, VEGF (human, UniProt P15692-4 27-191, limits assumed)
T1 construct: also called vascular endothelial growth factor; biotinylated VEGF
Method notes: BIAcore-2000 SPR, wt = Y0192
Measured metric: Kd (wt)/Kd (ratio)
Numbers only here, please. The scale is ratio.

// lookup Kd (wt)/Kd for Y0238-10 (Fab, V domains shown, Clone of library YC-81 on the pY0192 template; Soluble Fab) VH: EVQLVESGGGLVQPGGSLRLSCAASGYTFTNYGINWVRQAPGKGLEWVGWINTYTGEPTYAADFKRRFTFSLDTSKSTAYLQMNSLRAEDTAVYYCAKYPYYRNTSHWYFDVWGQGTL VL: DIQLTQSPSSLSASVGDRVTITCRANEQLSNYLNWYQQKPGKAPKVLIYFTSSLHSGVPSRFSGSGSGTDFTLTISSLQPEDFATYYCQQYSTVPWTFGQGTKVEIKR
4.8

// lookup Kd (wt)/Kd for Y0244-4 (Fab, V domains shown, Soluble Fab) VH: EVQLVESGGGLVQPGGSLRLSCAASGYTFTNYGINWVRQAPGKGLEWVGWINTYTGEPTYAADFKRRFTFSIDKSKSTAYLQMNSLRAEDTAVYYCAKYPHYYGSSHWYFDVWGQGTL VL: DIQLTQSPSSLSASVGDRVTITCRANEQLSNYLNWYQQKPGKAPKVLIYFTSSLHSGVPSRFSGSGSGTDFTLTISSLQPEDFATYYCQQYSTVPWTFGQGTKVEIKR
0.9

// lookup Kd (wt)/Kd for Y0313-3 (Fab, V domains shown, Reversion mutant of Y0238-3 (VH3 T105S); soluble Fab) VH: EVQLVESGGGLVQPGGSLRLSCAASGYTFTNYGINWVRQAPGKGLEWVGWINTYTGEPTYAADFKRRFTFSLDTSKSTAYLQMNSLRAEDTAVYYCAKYPYYYGSSHWYFDVWGQGTL VL: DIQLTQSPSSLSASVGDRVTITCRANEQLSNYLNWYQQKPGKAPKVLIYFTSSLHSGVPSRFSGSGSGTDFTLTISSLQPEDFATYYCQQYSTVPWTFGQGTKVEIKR
4.5
